The reported numbers originate from patent US10065990B2.

- assay-system: UniProt:Q96DB2
- Sequence (Q96DB2 whole entry, species assumed): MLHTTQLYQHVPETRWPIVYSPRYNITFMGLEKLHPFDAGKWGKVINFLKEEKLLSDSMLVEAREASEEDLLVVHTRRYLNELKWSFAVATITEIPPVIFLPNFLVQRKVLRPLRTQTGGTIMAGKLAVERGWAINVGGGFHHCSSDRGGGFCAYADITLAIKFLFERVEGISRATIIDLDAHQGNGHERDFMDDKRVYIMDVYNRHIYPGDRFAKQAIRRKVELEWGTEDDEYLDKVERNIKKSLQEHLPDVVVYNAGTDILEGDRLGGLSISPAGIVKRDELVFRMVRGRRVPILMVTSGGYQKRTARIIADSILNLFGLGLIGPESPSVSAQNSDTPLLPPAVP
- experimental-details: HDAC biochemical activity measurement (fluorescent substrate deacetylation);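 also: HDAC11 enzyme acting on an acetyl-lysine fluorogenic substrate, then a developer frees the fluorophore, read at excitation 360 nm and emission 460 nm, IC50 over a compound dilution series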
So I've got a bunch of compounds here, and I need their pIC50 values.
Give bare numbers, as −log10 of the molar value.

In [3]: df
Out[3]:
                               query_smiles    assay_system  result_value
0  C/C=C1\NC(=O)c2cccc(n2)CCNC(=O)C[C@@H](/C=C/CCSC(C)=O)OC(=O)[C@H](C(C)C)NC1=O  UniProt:Q96DB2          7.03
1  C/C=C1\NC(=O)c2cc(F)cc(n2)CNC(=O)C[C@@H](/C=C/CCSC(C)=O)OC(=O)[C@H](C(C)C)NC1=O  UniProt:Q96DB2          7.04
2  C/C=C1\NC(=O)c2nc(ccc2SC)CNC(=O)C[C@@H](/C=C/CCSC(=O)CCCCCCC)OC(=O)[C@H](C(C)C)NC1=O  UniProt:Q96DB2          7.07
3  C/C=C1\NC(=O)c2ccc(SC)c(n2)CNC(=O)C[C@@H](/C=C/CCSC(=O)CCCCCCC)OC(=O)[C@H](CC)NC1=O  UniProt:Q96DB2          7.01
4  C/C=C1\NC(=O)c2nc(ccc2F)CNC(=O)C[C@@H](/C=C/CCSC(C)=O)OC(=O)[C@H](C(C)C)NC1=O  UniProt:Q96DB2          7.03

Query block: Return reported pIC50; argument: `C/C=C1\NC(=O)c2ccc(F)c(n2)CNC(=O)C[C@@H](/C=C/CCSC(C)=O)OC(=O)[C@H](CCCCNC(=O)OCC2c3ccccc3-c3ccccc32)NC1=O`
Result block: 7.06
